Recorded pIC50, one value per entry.
System: SW-620
Experiment: Reversal of doxorubicin-induced multidrug resistance in human SW620 cells measured after 48 hrs by CCK-8 method
Type: functional, cell-based
Conditions: SW-620, 48 h
pIC50: −log10 of the molar value.
ASSAY ENDPOINT: pIC50

INSERT INTO assay_data (molecule, endpoint_value) VALUES
  ('COc1cc2c(cc1OC)CN(CCc1ccc(NC(=O)c3ccccc3NC(=O)CC34CC5CC(CC(C5)C3)C4)cc1)CC2', 6.55),
  ('COc1ccc(C(=O)Nc2ccccc2C(=O)Nc2ccc(CCN3CCc4cc(OC)c(OC)cc4C3)cc2)cc1OC', 7.20),
  ('COC(=O)c1ccc(C(=O)Nc2ccccc2C(=O)Nc2ccc(CCN3CCc4cc(OC)c(OC)cc4C3)cc2)cc1', 6.87),
  ('COc1cc2c(cc1OC)CN(CCc1ccc(NC(=O)c3ccccc3NC(=O)c3ccc(C(=O)N4CCN(C(=O)CC56CC7CC(CC(C7)C5)C6)CC4)cc3)cc1)CC2', 6.86),
  ('COc1ccc(CCN(C)CCCC(C#N)(c2ccc(OC)c(OC)c2)C(C)C)cc1OC (configuration not stated)', 6.85),
  ('COc1cc2c(cc1OC)CN(CCc1ccc(NC(=O)c3ccccc3NC(=O)c3ccccc3N)cc1)CC2', 6.64),
  ('COc1cc2c(cc1OC)CN(CCc1ccc(NC(=O)c3ccccc3NC(=O)c3ccc(C(=O)NCCNC(=O)CC45CC6CC(CC(C6)C4)C5)cc3)cc1)CC2', 6.86);

* * *

Recorded IC50, one value per entry.
System: SW-620
Assay: Reversal of doxorubicin-induced multidrug resistance in human SW620 cells measured after 48 hrs by CCK-8 method
Type: functional, cell-based
Settings: SW-620, 48 h
ASSAY ENDPOINT: IC50 (nM)

INSERT INTO assay_data (mol, target_system, endpoint_value) VALUES
  ('COc1cc2c(cc1OC)CN(CCc1ccc(NC(=O)c3ccccc3NC(=O)c3ccc(N)cc3)cc1)CC2', 'SW-620', 173),
  ('COc1cc2c(cc1OC)CN(CCc1ccc(NC(=O)c3ccccc3NC(=O)c3ccc(NC(=O)CC45CC6CC(CC(C6)C4)C5)cc3)cc1)CC2', 'SW-620', 489),
  ('COc1cc2c(cc1OC)CN(CCc1ccc(NC(=O)c3ccccc3NC(=O)c3ccc(C(=O)O)cc3)cc1)CC2', 'SW-620', 376),
  ('COc1cccc2c1C(=O)c1c(O)c3c(c(O)c1C2=O)C[C@@](O)(C(=O)CO)C[C@@H]3O[C@H]1C[C@H](N)[C@H](O)[C@H](C)O1', 'SW-620', 256),
  ('COc1cc2c(cc1OC)CN(CCc1ccc(NC(=O)c3ccccc3NC(=O)CCNC(=O)CC34CC5CC(CC(C5)C3)C4)cc1)CC2', 'SW-620', 342),
  ('COc1cc2c(cc1OC)CN(CCc1ccc(NC(=O)c3ccccc3NC(=O)C34CC5CC(CC(C5)C3)C4)cc1)CC2', 'SW-620', 144);
